Sourced from patent US8093231B2

In this section we review reported pIC50 values for a set of compounds.
# Tested on: MX-1 (breast carcinoma)
# METHOD DESCRIPTION: Cytotoxicity/growth inhibition assay, MX-1
# Type: cell-based, human
# CONDITION SET: MX-1 cells, 3 days culture, CellTiter-Glo, 0.1-200 μM tested; read-out: IC50 (MX-1)
pIC50 here: minus log base 10 of the concentration, concentration in moles per litre.

These recorded examples may help you get a feel for the data.
>>> observed_value("O=P(OCCS(=O)(=O)c1ccc(F)cc1)(N(CCCl)CCCl)N(CCCl)CCCl [Compound 111A]")
5.89
>>> observed_value("O=C(CS(=O)(=O)CCOP(=O)(N(CCCl)CCCl)N(CCCl)CCCl)N1CCN(Cc2ccccc2)CC1 [Compound 19A]")
4.83
>>> observed_value("O=P(OCCS(=O)(=O)c1ccccc1S(=O)(=O)CCOP(=O)(N(CCCl)CCCl)N(CCCl)CCCl)(N(CCCl)CCCl)N(CCCl)CCCl [Compound 10B]")
4.97
>>> observed_value("COC(=O)c1ccc(NC(=O)CS(=O)(=O)CCOP(=O)(N(CCCl)CCCl)N(CCCl)CCCl)cc1 [Compound 30A]")
5.04
>>> observed_value("CNC(=O)c1ccc(CS(=O)(=O)CCOP(=O)(N(CCCl)CCCl)N(CCCl)CCCl)cc1 [Compound 168A]")
5.10

Query string: Look up pIC50 with MX-1 (breast carcinoma) for this compound: O=P(OCCS(=O)(=O)C1CCCC1)(N(CCCl)CCCl)N(CCCl)CCCl [Compound 10A]
Result string: 4.84

Query string: For the record O=P(OCCS(=O)(=O)Cc1ccc(F)cc1)(N(CCCl)CCCl)N(CCCl)CCCl [Compound 132A] , what value of pIC50 is listed for MX-1 (breast carcinoma)?
Result string: 5.21

Query string: State its pIC50 on MX-1 (breast carcinoma): O=C(CS(=O)(=O)CCOP(=O)(N(CCCl)CCCl)N(CCCl)CCCl)N1CCC(O)CC1 [Compound 52A]
Result string: 4.81

Query string: Query for MX-1 (breast carcinoma): what pIC50 does the record show for O=P(OCCS(=O)(=O)Cc1cccs1)(N(CCCl)CCCl)N(CCCl)CCCl [Compound 180A] ?
Result string: 5.03

Query string: For MX-1 (breast carcinoma), provide pIC50 of Cn1ccnc1S(=O)(=O)CCOP(=O)(N(CCCl)CCCl)N(CCCl)CCCl [Compound 122A] please.
Result string: 5.37
